Value source: PubChem BioAssay (NCI)

# Test system: MOLT-4 leukemia
# procedure-summary: NCI-60 one-dose screen, 48 h (100 = growth as untreated, 0 = no growth, -100 = all killed)
# condition-info: 10 µM
The panel holds about 83,000 compounds, 20% with a hit somewhere; the sample as a whole holds those more often.
Where growth equals or exceeds 20%, the correct label is Condition met; where it does not, the label is Condition not met.

Does "COc1ccc(S(=O)(=O)Nc2c(/C=C\c3cc(OC)c(OC)c(OC)c3)ccc(OC)c2O)cc1" have a reported growth of at least 20%?
Condition not met

Does "CC/C(=C(/c1ccc(OCCN(C)C)cc1)c1ccc(OC(=O)CCCCC(=O)c2c(C)[nH]c(/C=C3\N=C(c4ccc[nH]4)C=C3OC)c2C)cc1)c1ccccc1" have a reported growth of at least 20%?
Condition met

Does CC(C)=CCc1cc(O)cc2c1OC(C=C(C)C)C1=C2C(=O)C2=C(C1=O)S(=O)(=O)CCN2 (centres undefined) have a reported growth of at least 20%?
Condition not met

Does "CN(C)CCOc1nc2ccccc2c2c1-c1ccc(Cl)cc1C2=O" have a reported growth of at least 20%?
Condition not met

Does Nc1ccn(C2CC(O)C(CO)O2)c(=O)n1 (centres undefined) have a reported growth of at least 20%?
Condition met

Does "CC(C)C[C@H](NC(=O)[C@H](Cc1cccc2ccccc12)NS(=O)(=O)c1cccc2cccnc12)B(O)O" have a reported growth of at least 20%?
Condition not met

Does "CCOC(=O)N1C/C(=C/c2ccc(Cl)cc2)C(=O)/C(=C/c2ccc(Cl)cc2)C1" have a reported growth of at least 20%?
Condition met

Does "O=C1/C(=C\c2ccc(F)cc2)CN(C(=O)c2ccc([N+](=O)[O-])cc2)C/C1=C\c1ccc(F)cc1" have a reported growth of at least 20%?
Condition met

Does "O=C(CCCCCCC(=O)Nc1cccnc1)NO" have a reported growth of at least 20%?
Condition not met
